Each recorded value in this set is attributed to the supplement of paper PMC8728848.

- System under test: GlcNAc(b1-3)Gal
- Experiment summary: glycan array binding signal (z-score within array); higher = stronger binding
- Experimental conditions: glycan notation: IUPAC condensed, linker removed
This is one part of a sample in which the strongest signals are shown more often than they occur.
Experimental endpoint: glycan array binding signal (z-score)
Reply: number alone, nothing else.

For record SP15308C-bot-338-23-338 (Bacteroides ovatus) (protein) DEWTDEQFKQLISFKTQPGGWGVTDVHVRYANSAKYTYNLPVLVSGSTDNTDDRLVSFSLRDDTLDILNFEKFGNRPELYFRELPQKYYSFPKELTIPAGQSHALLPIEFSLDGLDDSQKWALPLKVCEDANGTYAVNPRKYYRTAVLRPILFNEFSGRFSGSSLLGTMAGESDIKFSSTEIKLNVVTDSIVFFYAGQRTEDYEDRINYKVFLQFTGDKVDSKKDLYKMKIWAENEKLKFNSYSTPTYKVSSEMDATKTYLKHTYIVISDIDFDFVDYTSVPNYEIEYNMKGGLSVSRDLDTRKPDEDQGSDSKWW the listed glycan array binding signal (z-score) is -0.756
